Target: human RORγ-LBD (Homo sapiens, UniProt P51449)
Construct: made in house; host or cells: E. coli (BL-21)
Sequence (P51449 262-518): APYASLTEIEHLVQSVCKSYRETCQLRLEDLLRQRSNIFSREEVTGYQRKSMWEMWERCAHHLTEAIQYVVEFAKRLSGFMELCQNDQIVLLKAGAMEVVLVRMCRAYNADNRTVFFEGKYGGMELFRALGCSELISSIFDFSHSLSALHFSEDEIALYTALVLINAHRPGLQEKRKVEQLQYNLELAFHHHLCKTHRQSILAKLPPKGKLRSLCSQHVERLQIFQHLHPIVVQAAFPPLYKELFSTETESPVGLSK
Assay: ROR gamma coactivator peptide recruitment Alphascreen assay (RORγ-LBD binding to GRIP1 coactivator peptide)
Type: biochemical
Conditions: 5 nM human RORγ-LBD, 30 nM 7-β-hydroxycholesterol, 50 nM biotinylated GRIP1 coactivator peptide, overnight incubation at room temperature; read-out: result (pIC50, RORγ coactivator peptide recruitment Alphascreen assay) (converted)

compound	IC50 / nM
C[C@]1(C(=O)O)CC[C@H](n2ncc(C(=O)N(CC(=O)c3c(Cl)cncc3Cl)CC3(CF)CCC3)c2C(F)(F)F)CC1	3.02
CC1(CN(CC(=O)c2c(Cl)cc(F)cc2Cl)C(=O)c2cnn([C@H]3CC[C@](C)(C(=O)O)CC3)c2C(F)(F)F)CCCC1	0.871
CC(C)(C)CN(CC(=O)c1c(Cl)cncc1Cl)C(=O)c1cnn([C@H]2C[C@]3(C[C@H](C(=O)O)C3)C2)c1C(F)(F)F (stereo partly drawn) [Example 836]	30.9
C[C@H]1C[C@@](C)(C(=O)O)CC[C@H]1n1ncc(C(=O)N(CC(=O)c2c(Cl)cncc2Cl)CC(C)(C)C)c1C(F)(F)F	67.6
CC1(C)CC[C@H](CN(CC(=O)c2c(Cl)cccc2Cl)C(=O)c2cnn([C@H]3CC[C@](C)(C(=O)O)CC3)c2C(F)(F)F)O1 [Example 839]	7.24
C[C@]12CC[C@](CN(CC(=O)c3c(Cl)cccc3Cl)C(=O)c3cnn([C@H]4CC[C@](C)(C(=O)O)CC4)c3C(F)(F)F)(CC1)C2	39.8
